System: NCI-H226 lung
procedure-text: NCI tumour cell line growth inhibition, 48 h
Recorded measurements of TGI, one per entry
readout-type: TGI

1. COc1ccc(N2C(=O)C3c4[nH]c5ccc(Br)cc5c4C4CCC(C(C)(C)C)CC4C3C2=O)cc1 (configuration not stated)	> 100 µM
2. C#CCSc1cc(Cl)c(C)cc1S(=O)(=O)Nc1nc2ccccc2o1	> 100 µM
3. N#CC(=N)c1ncn(-c2ccc(N)cc2)c1N	> 100 µM
4. NC(=O)NCCCC(NC(=O)OCCCCCCn1ccc(=O)[nH]c1=O)C(=O)O (configuration not stated)	> 100 µM
5. CCOC(=O)C(Cc1ccc(OC(=O)c2ccc(OC)cc2)cc1)NC(=O)C(F)(F)F (configuration not stated)	> 100 µM
6. C[C@@]12CCC[C@@](C)(C(=O)O)C1CC[C@]13C[C@@](O)(CO)[C@](O)(CCC12)C3 (some centres not stated)	> 100 µM
7. O=C1CSC(c2ccccc2[N+](=O)[O-])N1c1ccc(-c2ccc(-n3c(-c4ccccc4)nc4ccccc4c3=O)cc2)cc1 (configuration not stated)	> 100 µM
8. CC(C)NC(=O)OCc1c(CO)c2c(n1C)-c1ccccc1CC2	> 64.5 µM
9. O=c1ccn(COC(COCc2ccccc2)COCc2ccccc2)c(=O)[nH]1	> 100 µM
10. COc1cccc(NC(=O)c2sc3nc(C)c(C(O)c4ccccc4)cc3c2N)c1 (configuration not stated)	23.7 µM
11. O=C(Nc1ccc2[nH]c(C(=O)N3CC(CCl)c4c3cc([N+](=O)[O-])c3ccccc43)cc2c1)Nc1ccc2[nH]c(C(=O)N3CC(CCl)c4c3cc([N+](=O)[O-])c3ccccc43)cc2c1 (configuration not stated)	> 100 µM
12. COc1cc(-c2cc(=O)c3c(O)c(CC=C(C)C)c(O)cc3o2)ccc1O	> 50 µM
13. CC(=O)OCC1OC(Nn2c(=O)[nH]c3ccccc3c2=O)C(OC(C)=O)C(OC(C)=O)C1OC(C)=O (configuration not stated)	> 100 µM
14. COc1cc(C2c3cc4c(cc3OC(NNS(=O)(=O)c3ccc(C)cc3)C2C)OCO4)cc(OC)c1O (configuration not stated)	60.2 µM
15. S=C1CCSc2c(ccc3ccccc23)N1	> 100 µM
16. CS(=O)(=O)c1ccc(N=C/C=C/Nc2ccc(S(C)(=O)=O)cc2)cc1	> 100 µM
17. COc1ccccc1-c1cc(=O)c2cc3c(cc2[nH]1)OCO3	88.8 µM
18. CCOC(=O)N1CCC(=O)C(CNC23CC4CC(CC(C4)C2)C3)C1 (configuration not stated)	> 100 µM
19. COc1c2ccoc2c(OC)c2oc(=O)ccc12	> 100 µM
20. CC1SCc2nc3ccccc3n21 (configuration not stated)	> 100 µM
21. CC1=C(O)C(=O)C2C(=O)C1C1Cc3ccccc3C21 (configuration not stated)	> 100 µM
22. CCN(CC)c1ccc(C(O)C2=CC(=O)c3ccccc3C2=O)cc1 (configuration not stated)	4.63 µM
